Tested on: soybean
protocol: Test B pre/postemergence soybean
Format: in vivo, Glycine max
measurement.context: Rate 125 g/ha; Postemergence; scale 0 to 10, 0 no effect, 10 complete control
Provide the reported Soybean plant response rating of each item.
Respond using a number only.

Let me know recorded Soybean plant response rating for `Cc1nn(C)c(C)c1-n1c(=O)on(C(=O)N(c2ccc(F)cc2)C(C)C)c1=O` , thanks.
1

Give reported Soybean plant response rating value for `Cc1ccccc1-n1c(=O)on(C(=O)N(c2ccc(C#N)cc2)C(C)C)c1=O`
0

Determine from records and report Soybean plant response rating for `CCN(C(=O)n1oc(=O)n(-c2c(C)cc(C)cc2C)c1=O)C1CCCCC1`
2

For the molecule `CC(C)N(C(=O)n1oc(=O)n(-c2cc(Cl)cc(Cl)c2)c1=O)C1=CCOCC1` , give its measured Soybean plant response rating value.
0

---

Test system: rape
protocol: Test B pre/postemergence rape
Format: in vivo, Brassica napus
measurement.context: Preemergence, Rate 62 g/ha; scale of 0 to 10 where 0 is no effect and 10 is complete control
Consider the following molecules; for each one, report its Plant response rating, Rape.
Respond using a number only.

Report Plant response rating, Rape for CC(C)N(C(=O)n1oc(=O)n(CNC(=O)c2ccccc2)c1=O)c1ccc(F)cc1 [Compound 445]
0

Give the value of Plant response rating, Rape reported for the following: CC(C)N(C(=O)n1oc(=O)n(CC2=NOCCC2)c1=O)c1ccc(Cl)cc1 [Compound 450]
0

Note Plant response rating, Rape for the molecule shown: CC(C)N(C(=O)n1oc(=O)n(CCC[Si](C)(C)C)c1=O)c1ccc(F)cc1 [Compound 461]
0

Write down Plant response rating, Rape measured for item CC(C)N(C(=O)n1oc(=O)n(CCCl)c1=O)c1ccc(Cl)cc1 [Compound 474]
0

---

Would you mind telling me the reported Sugarbeets plant response rating of each entry?
Tested on: sugar beet
protocol: Test B pre/postemergence sugar beet
Format: in vivo, Beta vulgaris
measurement.context: Rate 500 g/ha, Postemergence; scale 0 to 10
Keep it simple and answer with nothing but the number.

Answer with reported Sugarbeets plant response rating of `CC(C)N(C(=O)n1oc(=O)n(CC(F)(F)F)c1=O)c1ccc(F)cc1`
5

Return Sugarbeets plant response rating for the following compound: `COc1nc(OC)nc(N(C(=O)n2oc(=O)n(C(C)C)c2=O)C(C)C)n1`
0

Identify Sugarbeets plant response rating associated with the compound `CC(C)N(C(=O)n1oc(=O)n(CCC(F)=C(F)F)c1=O)c1ccc(F)cc1`
4

Look up and report measured Sugarbeets plant response rating for this entry: `Cc1nc(C)c(Cn2c(=O)on(C(=O)N(c3ccc(Cl)cc3)C(C)C)c2=O)s1`
0

Read the entry `Cc1ccccc1-n1c(=O)on(C(=O)N(c2ccc(Cl)cc2F)C(C)C)c1=O` and write its reported Sugarbeets plant response rating.
2

Note down Sugarbeets plant response rating recorded for CC1CCCCC1n1c(=O)on(C(=O)N(c2ccc(F)cc2F)C(C)C)c1=O (stereo not drawn)
0

---

System: bedstraw
protocol: Test B pre/postemergence bedstraw
Type: in vivo, Galium aparine
measurement.context: Preemergence, Rate 125 g/ha
assay.endpoint: Bedstraw plant response rating (0 to 10 scale)
A bare number is all that is needed in reply.

Identify Bedstraw plant response rating (0 to 10 scale) associated with the compound `Cc1c(-n2c(=O)on(C(=O)N(c3ccc(F)cc3F)C(C)C)c2=O)ccc2ccccc12`
0

Please report the measured Bedstraw plant response rating (0 to 10 scale) for `Cc1c(-n2c(=O)on(C(=O)N(c3ccc(F)cc3)C(C)C)c2=O)ccc2ccccc12`
0

Output measured Bedstraw plant response rating (0 to 10 scale) for this item: CC(C)N(C(=O)n1oc(=O)n(C(C)CCl)c1=O)c1ccc(F)cc1 (stereo not shown)
10

Check the records and state Bedstraw plant response rating (0 to 10 scale) for `CC(C)N(C(=O)n1oc(=O)n(C2CCCCCC2)c1=O)c1ccc(Cl)cc1`
0
